- MEASUREMENT NOTES: in vitro
- EXPERIMENTAL PARAMETERS: human

STRUCTURE | CC50 (µg/mL)
O=[N+]([O-])c1ccc(O)c2ncccc12 | 0.37
